system: GmACBP4.1_33–354 interaction with GmPLDα1:StrepII; assay: Strep-Tactin pull-down assay with supplemented acyl-CoAs; type: binding, soybean; conditions: acyl-CoA 12.5–100 μM, versus control without acyl-CoA
readout: increase in WT binding with GmPLDα1:StrepII

smiles-input	value-measured
CC/C=C\C/C=C\C/C=C\CCCCCCCC(=O)SCCNC(=O)CCNC(=O)[C@H](O)C(C)(C)COP(=O)(O)OP(=O)(O)OC[C@H]1O[C@@H](n2cnc3c(N)ncnc32)[C@H](O)[C@@H]1OP(=O)(O)O	did not influence
CCCCCCCCCCCCCCCC(=O)SCCNC(=O)CCNC(=O)[C@H](O)C(C)(C)COP(=O)(O)OP(=O)(O)OC[C@H]1O[C@@H](n2cnc3c(N)ncnc32)[C@H](O)[C@@H]1OP(=O)(O)O	up to nine-fold
CCCCCCCC/C=C\CCCCCCCC(=O)SCCNC(=O)CCNC(=O)[C@H](O)C(C)(C)COP(=O)(O)OP(=O)(O)OC[C@H]1O[C@@H](n2cnc3c(N)ncnc32)[C@H](O)[C@@H]1OP(=O)(O)O	up to nine-fold
CCCCC/C=C\C/C=C\CCCCCCCC(=O)SCCNC(=O)CCNC(=O)[C@H](O)C(C)(C)COP(=O)(O)OP(=O)(O)OC[C@H]1O[C@@H](n2cnc3c(N)ncnc32)[C@H](O)[C@@H]1OP(=O)(O)O	did not influence

###

test system: (His)6-GmACBP4.1_33–354; assay: Protein–lipid overlay assay; format: binding, soybean; settings: commercial strips and PA-spotted nitrocellulose strips; 0.5 μg mL−1 protein
readout: binding on lipid filter strips

smiles-input	readout	value-measured
CCCCCCCCCCCCCC(=O)OC[C@H](COP(=O)(O)O)OC(=O)CCCCCCCCCCCCC	binding on lipid filter strips	lower affinity
CCCCCCCCCCCCCCCCCC(=O)OC[C@H](COP(=O)(O)O)OC(=O)CCCCCCCCCCCCCCCCC	binding on lipid filter strips	lower affinity
